Where these numbers come from: patent US20250019381A1

target: PDE9 (Homo sapiens (Human), UniProt O76083)
Sequence (O76083 whole entry): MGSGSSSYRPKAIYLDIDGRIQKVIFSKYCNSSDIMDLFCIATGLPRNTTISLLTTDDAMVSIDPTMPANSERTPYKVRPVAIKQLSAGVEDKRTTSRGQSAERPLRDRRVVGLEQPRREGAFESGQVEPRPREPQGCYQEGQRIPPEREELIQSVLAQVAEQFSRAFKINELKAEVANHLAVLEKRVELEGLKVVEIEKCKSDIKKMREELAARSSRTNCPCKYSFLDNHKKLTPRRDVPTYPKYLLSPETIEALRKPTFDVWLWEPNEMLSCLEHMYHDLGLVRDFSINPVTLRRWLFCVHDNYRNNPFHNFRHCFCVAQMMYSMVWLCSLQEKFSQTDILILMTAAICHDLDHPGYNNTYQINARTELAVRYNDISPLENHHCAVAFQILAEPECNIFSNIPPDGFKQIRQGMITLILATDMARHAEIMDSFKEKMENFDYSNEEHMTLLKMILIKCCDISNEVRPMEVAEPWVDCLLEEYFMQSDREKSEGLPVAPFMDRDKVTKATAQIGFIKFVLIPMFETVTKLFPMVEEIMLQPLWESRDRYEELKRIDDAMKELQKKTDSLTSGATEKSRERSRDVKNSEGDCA
pIC50: −log10 of the molar value.
Measurement Name: pIC50

Chem Smiles	Test Value
C[C@@H]1CN(Cc2ncccn2)C[C@H]1c1cn2c(C3CCOCC3)ncc2c(=O)[nH]1	8.00
